Values of Ki reported for human Adenosine A2a receptor (Homo sapiens (Human)) appear below.

Compound: Cc1cc(-c2sc(NC(=O)N3CC[C@H](S(C)(=O)=O)C3)nc2-c2cccc(C#N)c2)cc(C)n1 [Example 6.1]
Ki, nM: 1.05
--
Compound: Cc1cc(-c2sc(NC(=O)N3C4CNCC3C4)nc2-c2cccc(C#N)c2)cc(C)n1 [Example 7.5]
Ki, nM: 1.26
--
Compound: COc1cc(-c2sc(NC(=O)N3CC[S+]([O-])CC3)nc2-c2cccc(C#N)c2)cc(C)n1 [Example 16.3]
Ki, nM: 5.71
--
Compound: Cc1cc(-c2sc(NC(=O)N3CCC(C)(O)CC3)nc2-c2cccc(C#N)c2)cc(Cl)n1 [Example 3.7]
Ki, nM: 0.2

###

Test System: human Adenosine A2b receptor (Homo sapiens (Human))
Sequence (P29275 whole entry): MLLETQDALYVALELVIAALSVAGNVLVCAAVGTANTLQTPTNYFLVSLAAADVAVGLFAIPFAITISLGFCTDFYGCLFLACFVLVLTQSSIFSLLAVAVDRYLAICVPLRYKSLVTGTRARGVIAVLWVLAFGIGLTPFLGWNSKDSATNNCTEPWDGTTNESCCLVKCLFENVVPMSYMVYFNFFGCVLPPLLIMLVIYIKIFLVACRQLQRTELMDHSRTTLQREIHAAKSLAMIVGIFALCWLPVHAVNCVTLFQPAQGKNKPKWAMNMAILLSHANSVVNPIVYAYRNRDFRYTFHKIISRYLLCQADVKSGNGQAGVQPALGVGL
Assay Remarks: Adenosine receptor TR-FRET binding assay (A2b)
Test Settings: TR-FRET, inhibition of binding of 30 nM CA200645, CHO cell membranes
pKi: −log10 of the molar value. Counter-ions that a name gives are not always drawn.

Molecule: Cc1cc(-c2sc(NC(=O)N3CCC4(CCC(=O)N4)CC3)nc2-c2cccc(C#N)c2)cc(C)n1
pKi: 8.70
//
Molecule: Cc1cc(-c2sc(NC(=O)N3CC[S+]([O-])CC3)nc2-c2cccc(C#N)c2)cc(C(F)(F)F)n1
pKi: 8.85
//
Molecule: Cc1cc(-c2sc(NC(=O)N3CC[C@H](C(N)=O)C3)nc2-c2cccc(C#N)c2)cc(C)n1
pKi: 8.82
//
Molecule: Cc1cc(-c2sc(NC(=O)N3CCC4(CC3)CNC4=O)nc2-c2cccc(C#N)c2)cc(C)n1
pKi: 8.72
//
Molecule: Cc1cc(-c2sc(NC(=O)N3CCN4C(=O)OCCC4C3)nc2-c2cccc(C#N)c2)cc(C)n1 (stereo not drawn)
pKi: 8.19
//
Molecule: Cc1cc(-c2sc(NC(=O)N3CCN[C@@H](C#N)C3)nc2-c2cccc(C#N)c2)cc(C)n1
pKi: 8.29
//
Molecule: Cc1cc(-c2sc(NC(=O)N3CCC(C#N)CC3)nc2-c2cccc(C#N)c2)cc(CO)n1
pKi: 8.54
//
Molecule: Cc1cc(-c2sc(NC(=O)N3CCN4C(=O)CCC4C3)nc2-c2cccc(C#N)c2)cc(C)n1 (stereo not drawn)
pKi: 8.21
//
Molecule: Cc1cc(-c2sc(NC(=O)N3CCN[C@H](C)C3)nc2-c2cccc(C#N)c2)cc(Cl)n1
pKi: 8.62
//
Molecule: Cc1cc(-c2sc(NC(=O)N3CCC4(CC3)CNC4=O)nc2-c2cccc(C#N)c2)cc(CO)n1
pKi: 8.15
//
Molecule: Cc1cc(-c2sc(NC(=O)N3CC4(COC4)C3)nc2-c2cccc(C#N)c2)cc(C(C)O)n1 (racemic)
pKi: 8.30
//
Molecule: Cc1cc(-c2sc(NC(=O)N3CCN4CCNC(=O)C4C3)nc2-c2cccc(C#N)c2)cc(C)n1 (stereo not drawn)
pKi: 7.75
//
Molecule: Cc1cc(-c2sc(NC(=O)N3CCN[C@H](C)C3)nc2-c2cccc(C#N)c2)cc(C(F)(F)F)n1
pKi: 8.13
//
Molecule: Cc1cc(-c2sc(NC(=O)N3CC[C@](C)(C#N)C3)nc2-c2cccc(C#N)c2)cc(C)n1 [Example 27b]
pKi: 9.00
//
Molecule: COc1cc(-c2sc(NC(=O)N3CCS(=N)(=O)CC3)nc2-c2cccc(C#N)c2)cc(C)n1
pKi: 8.62
//
Molecule: Cc1cc(-c2sc(NC(=O)N3CC(N4CCOCC4)C3)nc2-c2cccc(C#N)c2)cc(C)n1
pKi: 7.63
//
Molecule: Cc1cc(-c2sc(NC(=O)N3CCC(c4ncno4)CC3)nc2-c2cccc(C#N)c2)cc(C)n1
pKi: 8.68
//
Molecule: Cc1cc(-c2sc(NC(=O)N3CC4(C3)CS(=O)(=O)C4)nc2-c2cccc(C#N)c2)cc(C)n1
pKi: 8.72
//
Molecule: CC(=O)NCc1cc(-c2sc(NC(=O)N3CC4(COC4)C3)nc2-c2cccc(C#N)c2)cc(C)n1
pKi: 7.41
//
Molecule: Cc1cc(-c2sc(NC(=O)N3CCN[C@H](C(N)=O)C3)nc2-c2cccc(C#N)c2)cc(Cl)n1
pKi: 8.74
//
Molecule: Cc1cc(-c2sc(NC(=O)N3CCO[C@@H](CO)C3)nc2-c2cccc(C#N)c2)cc(C)n1
pKi: 8.66
//
Molecule: Cc1cc(-c2sc(NC(=O)N3CC4(COC4)C3)nc2-c2cccc(C#N)c2)cc(C2COC2)n1
pKi: 8.48
//
Molecule: Cc1cc(-c2sc(NC(=O)N3CCC4(CCN(C)C4=O)CC3)nc2-c2cccc(C#N)c2)cc(C)n1
pKi: 8.27
//
Molecule: Cc1cc(-c2sc(NC(=O)N3CCN(C4CCOCC4)CC3)nc2-c2cccc(C#N)c2)cc(C)n1 [Example 6.113, diformate salt]
pKi: 8.08
//
Molecule: Cc1cc(-c2sc(NC(=O)N3CCN4C(=O)NC(=O)C4C3)nc2-c2cccc(C#N)c2)cc(C)n1 (stereo not drawn)
pKi: 8.19
//
Molecule: Cc1cc(-c2sc(NC(=O)N3CC4(CCO4)C3)nc2-c2cccc(C#N)c2)cc(C)n1
pKi: 8.82
//
Molecule: Cc1cc(-c2sc(NC(=O)N3CCN4C(=O)CNC(=O)C4C3)nc2-c2cccc(C#N)c2)cc(C)n1 (stereo not drawn)
pKi: 7.68
//
Molecule: Cc1cc(-c2sc(NC(=O)N3CCOCC3C(C)(C)O)nc2-c2cccc(C#N)c2)cc(Cl)n1 (stereo not drawn)
pKi: 7.84
//
Molecule: Cc1cc(-c2sc(NC(=O)N3CC[C@@H](C(=O)O)C3)nc2-c2cccc(C#N)c2)cc(C)n1
pKi: 7.76
//
Molecule: Cc1cc(-c2sc(NC(=O)N3CCN4CCS(=O)(=O)CC4C3)nc2-c2cccc(C#N)c2)cc(C)n1 (stereo not drawn)
pKi: 8.59

###

Test System: human Adenosine A2b receptor (Homo sapiens (Human))
Assay Remarks: Adenosine receptor TR-FRET binding assay (A2b)
Test Settings: TR-FRET, inhibition of binding of 30 nM CA200645, CHO cell membranes
pKi: −log10 of the molar value.
Give Fulfilled when the value for pKi is at least 8. Give Not fulfilled when it is less.

Compound: Cc1cc(-c2sc(NC(=O)N3CCC(C(C)(C)O)C3)nc2-c2cccc(C#N)c2)cc(Cl)n1 (stereo not drawn)
Class Assignment: Fulfilled

Compound: Cc1cc(-c2sc(NC(=O)N3CCC(S(C)(=O)=O)CC3)nc2-c2cccc(C#N)c2)cc(C)n1
Class Assignment: Fulfilled

Compound: Cc1cc(-c2sc(NC(=O)N3CC[S+]([O-])CC3)nc2-c2cccc(C#N)c2)cc(C)n1
Class Assignment: Fulfilled

Compound: Cc1cc(-c2sc(NC(=O)N3CC[S+]([O-])CC3)nc2-c2cccc(C#N)c2)cc(C(F)F)n1
Class Assignment: Fulfilled

Compound: Cc1cc(-c2sc(NC(=O)N3CCCC3CC(C)(C)O)nc2-c2cccc(C#N)c2)cc(Cl)n1 (stereo not drawn)
Class Assignment: Fulfilled

Compound: CC(=O)N=S1(=O)CCN(C(=O)Nc2nc(-c3cccc(C#N)c3)c(-c3cc(C)nc(C)c3)s2)CC1
Class Assignment: Fulfilled

Compound: Cc1cc(-c2sc(NC(=O)N3CCC4(CNCCO4)C3)nc2-c2cccc(C#N)c2)cc(C(F)F)n1 (stereo not drawn)
Class Assignment: Fulfilled

Compound: Cc1cc(-c2sc(NC(=O)N3C[C@H](C)N[C@@H](C)C3)nc2-c2cccc(C#N)c2)cc(C)n1
Class Assignment: Not fulfilled

Compound: Cc1cc(-c2sc(NC(=O)N3CCN(C(C)(C)CO)CC3)nc2-c2cccc(C#N)c2)cc(C)n1
Class Assignment: Not fulfilled

Compound: Cc1cc(-c2sc(NC(=O)N3CCC(C)(C#N)CC3)nc2-c2cccc(C#N)c2)cc(C)n1
Class Assignment: Fulfilled

Compound: Cc1cc(-c2sc(NC(=O)N3CC4(COC4)C3)nc2-c2cccc(C#N)c2)cc(C(C)C)n1
Class Assignment: Fulfilled

Compound: Cc1cc(-c2sc(NC(=O)N3CCN(CCO)C(=O)C3)nc2-c2cccc(C#N)c2)cc(C)n1
Class Assignment: Fulfilled

Compound: Cc1cc(-c2sc(NC(=O)N3C[C@@H](C)NC[C@@H]3C)nc2-c2cccc(C#N)c2)cc(C)n1 (relative stereo)
Class Assignment: Not fulfilled

Compound: COC(=O)[C@H]1CN(C(=O)Nc2nc(-c3cccc(C#N)c3)c(-c3cc(C)nc(Cl)c3)s2)CCN1
Class Assignment: Fulfilled

###

Tested on: human PBMCs
Assay Remarks: CD3/CD28 stimulated IL-2 release NECA reversal assay in human PBMCs
Type: cell-based
Test Settings: PBMC, 1 uM NECA, 24 hours, IL-2 in culture supernatant

Compound: Cc1cc(-c2sc(NC(=O)N3CC[C@@H](C(C)(C)O)C3)nc2-c2cccc(C#N)c2)cc(C)n1
IC50: 4.2 nM
--
Compound: Cc1cc(-c2sc(NC(=O)N3CCOC[C@H]3CO)nc2-c2cccc(C#N)c2)cc(C)n1
IC50: 7.8 nM
--
Compound: Cc1cc(-c2sc(NC(=O)N3CC4(CCN(C)C4=O)C3)nc2-c2cccc(C#N)c2)cc(C)n1
IC50: 1.2 nM
--
Compound: Cc1cc(-c2sc(NC(=O)N3CCC4(CC3)COC4)nc2-c2cccc(C#N)c2)cc(C)n1
IC50: 2.9 nM
--
Compound: Cc1cc(-c2sc(NC(=O)N3CCC4(CC3)CN(C)C(=O)O4)nc2-c2cccc(C#N)c2)cc(C)n1
IC50: 2.7 nM
--
Compound: Cc1cc(-c2sc(NC(=O)N3CCC(C#N)(C#N)CC3)nc2-c2cccc(C#N)c2)cc(CO)n1
IC50: 0.7 nM
--
Compound: Cc1cc(-c2sc(NC(=O)N3CC4(COC4)C3)nc2-c2cccc(C#N)c2)cc(CF)n1
IC50: 2.6 nM
--
Compound: Cc1cc(-c2sc(NC(=O)N3CC(O)C3)nc2-c2cccc(C#N)c2)cc(C)n1
IC50: 1.3 nM
--
Compound: Cc1cc(-c2sc(NC(=O)N3CCC4(CCNC(=O)C4)CC3)nc2-c2cccc(C#N)c2)cc(C)n1
IC50: 3.2 nM
--
Compound: Cc1cc(-c2sc(NC(=O)N3CC4(CCNC4=O)C3)nc2-c2cccc(C#N)c2)cc(C)n1
IC50: 5.9 nM
--
Compound: Cc1cc(-c2sc(NC(=O)N3CC[C@H](O)C3)nc2-c2cccc(C#N)c2)cc(C)n1
IC50: 8.5 nM
--
Compound: Cc1cc(-c2sc(NC(=O)N3CC4(CNC(=O)C4)C3)nc2-c2cccc(C#N)c2)cc(C)n1
IC50: 2.2 nM
--
Compound: Cc1cc(-c2sc(NC(=O)N3CC4(CCOCC4)C3)nc2-c2cccc(C#N)c2)cc(C)n1
IC50: 3.3 nM
--
Compound: Cc1cc(-c2sc(NC(=O)N3CCC(C(N)=O)CC3)nc2-c2cccc(C#N)c2)cc(C)n1
IC50: 2.1 nM
--
Compound: Cc1cc(-c2sc(NC(=O)N3CCC(C)(C#N)CC3)nc2-c2cccc(C#N)c2)cc(C)n1
IC50: 0.6 nM
--
Compound: Cc1cc(-c2sc(NC(=O)N3CC4(COC4)C3)nc2-c2cccc(C#N)c2)cc(C)n1
IC50: 2 nM
--
Compound: Cc1cc(-c2sc(NC(=O)N3CC[C@H](S(C)(=O)=O)C3)nc2-c2cccc(C#N)c2)cc(C)n1
IC50: 3.6 nM
--
Compound: Cc1cc(-c2sc(NC(=O)N3CCN[C@H](C(C)(C)O)C3)nc2-c2cccc(C#N)c2)cc(Cl)n1
IC50: 17.9 nM
--
Compound: Cc1cc(-c2sc(NC(=O)N3CCC4(COC4)C3)nc2-c2cccc(C#N)c2)cc(C)n1
IC50: 7.6 nM
--
Compound: Cc1cc(-c2sc(NC(=O)N3CCN(S(C)(=O)=O)CC3)nc2-c2cccc(C#N)c2)cc(C)n1
IC50: 6.1 nM
--
Compound: Cc1cc(-c2sc(NC(=O)N3CCNC(=O)C3)nc2-c2cccc(C#N)c2)cc(C)n1
IC50: 14.1 nM
--
Compound: Cc1cc(-c2sc(NC(=O)N3CCC4(CC3)CNC4=O)nc2-c2cccc(C#N)c2)cc(C)n1
IC50: 1.8 nM
--
Compound: Cc1cc(-c2sc(NC(=O)N3CCN4CCS(=O)(=O)CC4C3)nc2-c2cccc(C#N)c2)cc(C)n1 (stereo not drawn)
IC50: 5.3 nM
--
Compound: Cc1cc(-c2sc(NC(=O)N3CCNCC3)nc2-c2cccc(C#N)c2)cc(Cl)n1
IC50: 13 nM
--
Compound: Cc1cc(-c2sc(NC(=O)N3CC4(CCOC4)C3)nc2-c2cccc(C#N)c2)cc(C)n1
IC50: 2.5 nM
--
Compound: Cc1cc(-c2sc(NC(=O)N3CCC(F)(C#N)CC3)nc2-c2cccc(C#N)c2)cc(C)n1
IC50: 0.8 nM
--
Compound: Cc1cc(-c2sc(NC(=O)N3CCC(C)(C#N)CC3)nc2-c2cccc(C#N)c2)cc(Cl)n1
IC50: 1 nM
--
Compound: Cc1cc(-c2sc(NC(=O)N3CCN(C4COC4)CC3)nc2-c2cccc(C#N)c2)cc(C)n1
IC50: 6.2 nM
--
Compound: Cc1cc(-c2sc(NC(=O)N3CCN[C@@H](C)C3)nc2-c2cccc(C#N)c2)cc(Cl)n1
IC50: 71.8 nM
--
Compound: Cc1cc(-c2sc(NC(=O)N3CC4(COC4)C3)nc2-c2cccc(C#N)c2)cc(C(F)(F)F)n1
IC50: 0.7 nM
